# Test system: Penicillium ochrochloron
# ASSAY_PROCEDURE: Antimicrobial activity against Penicillium ochrochloron ATCC 9112 by serial dilution technique
# Format: functional
VALUE_TYPE: MIC (µM)

Look over these answered cases.
Quickly give me recorded MIC for `C[C@@H]1C(=O)O[C@H]2[C@H]1[C@@H](O)C[C@]1(C)[C@@H]2[C@@H](C=O)CC[C@H]1O`
0.3

Quickly give me recorded MIC for `C=C[C@]1(C)C[C@H](O)[C@@H]2[C@H](OC(=O)[C@H]2C)[C@H]1C(=C)CO`
0.7

1: C=C[C@]1(C)C[C@H](OC(=O)C(=C)CCO)[C@@H]2[C@H](OC(=O)[C@H]2C)[C@H]1C(=C)CO
2: C/C1=C\CC/C(CO)=C/[C@H]2OC(=O)[C@@H](C)[C@@H]2[C@@H](O)C1
3: C[C@@H]1C(=O)O[C@@H]2C3[C@H](C=O)CCC[C@]3(C)C[C@H](O)[C@@H]12 (stereo partly specified)
4: Clc1ccc(COC(Cn2ccnc2)c2ccc(Cl)cc2Cl)c(Cl)c1 (stereo unspecified)
Sort (4 compounds) by MIC: min first. Please list the labels according to the requested order.
1, 3, 2, 4
(1: 0.2 µM, 3: 0.4 µM, 2: 0.7 µM, 4: 4 µM)
